# Tested on: K562 SF3B1 K700E vs K562 SF3B1 WT
# assayDetails: surviving fraction ratio K562 SF3B1 K700E / K562 SF3B1 WT (each relative to DMSO); higher = less selective killing of SF3B1 K700E cells
# testContext: 10nM; 5 days
# surviving fraction ratio K562 SF3B1 K700E / K562 SF3B1 WT listing for each entry below
Respond with the number and no other words.

Here is how some compounds turned out for surviving fraction ratio K562 SF3B1 K700E / K562 SF3B1 WT.
[
  {
    "inputSmiles": "C[C@@H](Oc1cc(-c2cnn(C3CCNCC3)c2)cnc1N)c1c(Cl)ccc(F)c1Cl",
    "measuredResult": 0.861
  },
  {
    "inputSmiles": "C[C@@H]1CN(CC(=O)Nc2ccc3c(c2)Cc2cccc(-c4cc(=O)cc(N5CCOCC5)o4)c2S3)C[C@H](C)O1",
    "measuredResult": 0.896
  },
  {
    "inputSmiles": "Cc1nc(Nc2ncc(C(=O)Nc3c(C)cccc3Cl)s2)cc(N2CCN(CCO)CC2)n1",
    "measuredResult": 1.39
  }
]

**Query** Given the compound "CCC1=C[C@@H]2CN(C1)Cc1c([nH]c3ccccc13)[C@@](C(=O)OC)(c1cc3c(cc1OC)N(C)[C@H]1[C@@](O)(C(=O)OC)[C@H](OC(C)=O)[C@]4(CC)C=CCN5CC[C@]31[C@@H]54)C2" , write its reported surviving fraction ratio K562 SF3B1 K700E / K562 SF3B1 WT.
**Result** 0.385
